- Experimental Target: human TET2 construct (Homo sapiens, UniProt Q6N021, A1837G/A1840G/D1704G/D1842G/DEL1471-1702/DEL1708-1833/E1841G/F1706G/N1843S/Q1834G/V1836G)
- Experiment Description: Determination of TET2 binding by Surface Plasmon Resonance
- Measurement Setup: SPR, Biacore T200, 25° C., steady state fit to single site interaction model
- Experimental: The human methylcytosine dioxygenase TET2 construct used (1129-2002 with residues 1471-1843 replaced by a 15-residue GS-linker) was expressed in a pET-28a(+)psumo vector with kanamycin resistance and an N-terminal His6 tag, and cloned in Rosetta D3 Escherichia coli competent cells. […] The binding of compounds of the examples was determined by Surface Plasmon Resonance (SPR) using a Biacore T200 SPR biosensor instrument (GE Healthcare, Uppsala, Sweden) at 25° C. […]
Measurement Name: Kd (µM)
Report the figure in µM without appending any unit label.

Cc1[nH]c2ccccc2c1-c1csc(NC(=O)Cc2cn(C)c3ccccc23)n1 [Example 11]    2

Entry under test: Cc1[nH]c2ccccc2c1-c1csc(NC(=O)Cc2sc3ccccc3c2C)n1 [Example 20] . Its Kd was 5

Entry Cc1[nH]c2ccccc2c1-c1csc(NC(=O)Cc2c[nH]c3ccc(F)cc23)n1 [Example 12] — recorded Kd = 6

molecule Cc1[nH]c2ccccc2c1-c1csc(NC(=O)Cc2csc3nccn23)n1 [Example 2] , Kd observed: 15

For record Cc1[nH]c2cc(F)ccc2c1-c1csc(NC(=O)Cc2cn3ccsc3n2)n1 [Example 26] the listed Kd is 16

====

The entries below come with measured EC50 values attached.
- Tested on: MDA-MB-468 (breast)
- Experiment Description: Antiproliferative activity on other tumour cell lines (CellTiter-Glo): MDA-MB-468
- Type: cell-based
- Measurement Setup: Homo sapiens, MD-MB-468, 72 h of treatment
# number only, unit µM dropped from output

Here's what some known entries look like.
Cc1[nH]c2ccccc2c1-c1csc(NC(=O)Cc2c[nH]c3ccc(O)cc23)n1    9.2
Cc1[nH]c2ccccc2c1-c1csc(NC(=O)Cc2c[nH]c3ccc(F)cc23)n1    10.1

Would you kindly look at the next entry?
Per the record, `Cc1[nH]c2ccccc2c1-c1csc(NC(=O)Cc2cn3ccsc3n2)n1` has EC50 of 16

====

- Tested on: LN229 (glioblastoma)
- Experiment Description: Antiproliferative activity on other tumour cell lines (CellTiter-Glo): LN229
- Assay type: cell-based
- Measurement Setup: Homo sapiens, LN-229; LN229, 72 h of treatment
# pEC50 per entry
Friendly reminder that pEC50 comes from taking -log10 of the concentration in mol/L.

Cc1[nH]c2ccccc2c1-c1csc(NC(=O)Cc2c[nH]c3ccc(F)cc23)n1    5.23
Cc1[nH]c2ccccc2c1-c1csc(NC(=O)Cc2cn3ccsc3n2)n1    5.48

Record `Cc1[nH]c2ccccc2c1-c1csc(NC(=O)Cc2c[nH]c3ccc(O)cc23)n1` , field pEC50: 5.48

====

Measurement Name: melting point

Cc1[nH]c2ccccc2c1-c1csc(NC(=O)Cc2cc3ccccc3[nH]2)n1    166 to 168 °C

# compound `Cc1[nH]c2ccccc2c1-c1csc(NC(=O)Cc2c[nH]c3ccc(O)cc23)n1` ; its melting point = 145 to 149 °C

Record summary for `Cc1[nH]c2ccc(N)cc2c1-c1csc(NC(=O)Cc2cn3ccsc3n2)n1` : reported melting point = 125 to 126 °C

Form: compound = `Cc1[nH]c2ccccc2c1-c1csc(NC(=O)CCc2c[nH]c3ccccc23)n1` ; melting point = 133 to 135 °C

According to the records, this compound `Cc1[nH]c2ccccc2c1-c1csc(NC(=O)Cc2cn(C)c3ccccc23)n1` displays melting point of 139 to 142 °C

Documented melting point of `Cc1[nH]c2ccccc2c1-c1coc(NC(=O)Cc2cn3ccsc3n2)n1` : 122 to 124 °C

Per the records, this compound ( `Cc1[nH]c2ccccc2c1-c1csc(NC(=O)Cc2cn3ccsc3n2)n1` ) has melting point equal to 210 to 212 °C

compound `Cc1[nH]c2ccccc2c1-c1csc(NC(=O)Cc2cc3ccccc3o2)n1` , melting point observed: 198 to 200 °C

====

- Experimental Target: human TET2 construct (Homo sapiens, UniProt Q6N021, A1837G/A1840G/D1704G/D1842G/DEL1471-1702/DEL1708-1833/E1841G/F1706G/N1843S/Q1834G/V1836G)
- Experiment Description: Determination of TET2 binding by Surface Plasmon Resonance
- Measurement Setup: SPR, Biacore T200, 25° C., steady state fit to single site interaction model
Measurement Name: pKd
Please express pKd as -log10 of the molar concentration.

`COc1ccc2[nH]c(C)c(-c3csc(NC(=O)Cc4cn5ccsc5n4)n3)c2c1` yielded pKd of 4.89

`Cc1[nH]c2ccccc2c1-c1csc(NC(=O)Cc2cc(Br)cs2)n1` has a reported pKd of 6.00

The reported pKd of the compound `Cc1[nH]c2ccccc2c1-c1csc(NC(=O)Cc2c[nH]c3cc(Cl)ccc23)n1` was 5.15

====

# pKd per record follows
- Experimental Target: human TET2 construct (Homo sapiens, UniProt Q6N021, A1837G/A1840G/D1704G/D1842G/DEL1471-1702/DEL1708-1833/E1841G/F1706G/N1843S/Q1834G/V1836G)
- Experiment Description: Determination of TET2 binding by Surface Plasmon Resonance
- Measurement Setup: SPR, Biacore T200, 25° C., steady state fit to single site interaction model
Interpret pKd as the negative base-10 log of the concentration measured in mol/L.

Summary for this compound, Cc1[nH]c2ccccc2c1-c1csc(NC(=O)Cc2cn3c(C)csc3n2)n1 [Example 10] : pKd is 4.96

response.value for Cc1[nH]c2ccccc2c1-c1nc(NC(=O)Cc2cn3ccsc3n2)sc1C [Example 4] (field: pKd) = 4.92

// recorded pKd for Cc1[nH]c2ccc(N)cc2c1-c1csc(NC(=O)Cc2cn3ccsc3n2)n1 [Example 28] : 4.17

Documented pKd of COc1ccc2[nH]cc(CC(=O)Nc3nc(-c4c(C)[nH]c5ccccc45)cs3)c2c1 [Example 6] : 5.30

Entry Cc1[nH]c2ccccc2c1-c1csc(NC(=O)Cc2c[nH]cn2)n1 [Example 17] , pKd reported as 4.96

====

# Lookup of reported melting point keyed by entry

Cc1[nH]c2ccccc2c1-c1csc(NC(=O)Cc2sc3ccccc3c2C)n1    233 to 235 °C
Cc1[nH]c2ccccc2c1-c1csc(NC(=O)Cc2nc3ccccc3o2)n1    239 to 242 °C

# compound `O=C(Cc1cn2ccsc2n1)Nc1nc(-c2c[nH]c3cccc(Br)c23)cs1` ; its melting point = 233 to 235 °C

In plain terms, `Cc1[nH]c2ccccc2c1-c1csc(NC(=O)Cc2cc(Br)cs2)n1` has a documented melting point of 212 to 214 °C

For record `Cc1[nH]c2ccccc2c1-c1csc(NC(=O)Cc2csc3nccn23)n1` the listed melting point is 160 to 163 °C

Note to self: melting point recorded for `Cc1[nH]c2ccccc2c1-c1csc(NC(=O)Cc2c[nH]c3cc(Cl)ccc23)n1` was 175 to 177 °C

Kindly note the recorded melting point for `Cc1[nH]c2ccccc2c1-c1nc(NC(=O)Cc2cn3ccsc3n2)sc1C` , which is 169 to 172 °C

Lab book: melting point of `COc1ccc2[nH]cc(CC(=O)Nc3nc(-c4c(C)[nH]c5ccccc45)cs3)c2c1` noted as 127 to 129 °C

According to the records, this compound `Cc1[nH]c2cc(F)ccc2c1-c1csc(NC(=O)Cc2cn3ccsc3n2)n1` displays melting point of 157 to 158 °C

GET /value?item= `Cc1[nH]c2ccccc2c1-c1csc(NC(=O)Cc2cn3cc(F)ccc3n2)n1` &field=melting point returns 114 to 119 °C

# melting point (compound: `Cc1cn2cc(CC(=O)Nc3nc(-c4c(C)[nH]c5ccccc45)cs3)nc2s1` ) is 140 to 142 °C

====

- Experimental Target: human TET2 construct (Homo sapiens, UniProt Q6N021, A1837G/A1840G/D1704G/D1842G/DEL1471-1702/DEL1708-1833/E1841G/F1706G/N1843S/Q1834G/V1836G)
- Experiment Description: Determination of TET2 binding by Surface Plasmon Resonance
- Measurement Setup: SPR, Biacore T200, 25° C., steady state fit to single site interaction model
- Experimental: The human methylcytosine dioxygenase TET2 construct used (1129-2002 with residues 1471-1843 replaced by a 15-residue GS-linker) was expressed in a pET-28a(+)psumo vector with kanamycin resistance and an N-terminal His6 tag, and cloned in Rosetta D3 Escherichia coli competent cells. […] The binding of compounds of the examples was determined by Surface Plasmon Resonance (SPR) using a Biacore T200 SPR biosensor instrument (GE Healthcare, Uppsala, Sweden) at 25° C. […]
Measurement Name: pKd
Expect pKd as a plain number equal to -log10 of the molar concentration.

Some solved cases for reference:
Cc1[nH]c2ccccc2c1-c1csc(NC(=O)Cc2cc3ccccc3o2)n1 [Example 18]    5.30
Cc1[nH]c2ccccc2c1-c1csc(NC(=O)Cc2c[nH]c3ccc(O)cc23)n1 [Example 21]    5.15
O=C(Cc1cn2ccsc2n1)Nc1nc(-c2c[nH]c3cccc(Br)c23)cs1 [Example 22]    5.70
Cc1[nH]c2ccccc2c1-c1csc(NC(=O)CCc2c[nH]c3ccccc23)n1 [Example 14]    4.85

# input for lookup
Reported pKd of Cc1ccc2[nH]cc(-c3csc(NC(=O)Cc4cn5ccsc5n4)n3)c2c1 [Example 24] : 6.00
